From: paper PMC10786891

Target: T1, EsCas13d, nuclease-dead (Eubacterium siraeum, UniProt B0MS50, R295A;H300A;R849A;H854A)
T1 sequence: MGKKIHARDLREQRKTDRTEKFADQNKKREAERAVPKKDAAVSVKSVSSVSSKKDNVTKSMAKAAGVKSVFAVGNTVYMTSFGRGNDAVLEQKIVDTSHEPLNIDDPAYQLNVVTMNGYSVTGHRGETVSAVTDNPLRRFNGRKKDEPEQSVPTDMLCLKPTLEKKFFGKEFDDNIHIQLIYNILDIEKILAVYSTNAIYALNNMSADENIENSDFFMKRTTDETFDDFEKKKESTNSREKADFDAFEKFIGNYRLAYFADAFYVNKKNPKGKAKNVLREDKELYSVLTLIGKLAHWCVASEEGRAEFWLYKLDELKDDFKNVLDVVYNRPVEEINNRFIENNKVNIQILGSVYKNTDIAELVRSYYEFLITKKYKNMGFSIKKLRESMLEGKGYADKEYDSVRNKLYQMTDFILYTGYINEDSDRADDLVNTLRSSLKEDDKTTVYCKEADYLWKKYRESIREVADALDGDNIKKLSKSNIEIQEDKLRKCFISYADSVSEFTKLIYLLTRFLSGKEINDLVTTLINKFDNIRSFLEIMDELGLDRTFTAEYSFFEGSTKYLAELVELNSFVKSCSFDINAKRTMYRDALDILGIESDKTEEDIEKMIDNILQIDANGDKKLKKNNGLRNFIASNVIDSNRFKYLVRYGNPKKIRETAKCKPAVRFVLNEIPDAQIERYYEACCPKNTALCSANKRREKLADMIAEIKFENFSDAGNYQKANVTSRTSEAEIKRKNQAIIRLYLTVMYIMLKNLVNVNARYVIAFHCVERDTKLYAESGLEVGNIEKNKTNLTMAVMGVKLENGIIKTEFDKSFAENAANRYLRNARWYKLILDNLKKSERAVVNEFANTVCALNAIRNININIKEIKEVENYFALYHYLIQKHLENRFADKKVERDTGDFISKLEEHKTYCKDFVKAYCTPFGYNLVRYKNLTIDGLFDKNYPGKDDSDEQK
Test: crRNA (strand 1, pre-loaded); Mg2+; 40 mM Tris-HCl pH 7.5, 150 mM NaCl, 6 mM MgCl2, 1 mM DTT, 0.1% Tween-20, 0.2 mg/ml BSA; 25 C; 10 min per concentration, then washed
Conditions: tags: His6-TwinStrep-SUMO cleaved; N-terminal SNAP kept (SNAP-Surface 488); label: 3' end held by stalled T7 RNA polymerase
PROPERTY: pKd
For clarity, pKd is expressed as the negative log10 of concentration in mol/L.

Examples from the recorded data:
[
  {
    "BINDER": "target 1 insG 3' of 8,insC 3' of 5 (mixed) RNA 1: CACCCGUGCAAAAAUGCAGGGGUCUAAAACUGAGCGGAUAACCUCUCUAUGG RNA 2: GGGAAUGGAUCCACAUCUACGAAUUCGUACCAUAGAGAGGUUAUGCCGCCUCACCGAGAUCGGAAGAGCACACGU",
    "RECORDED NUMBER": 7.99
  },
  {
    "BINDER": "target 2 MT 5'PFS CUA 3'PFS UUU (mixed) RNA 1: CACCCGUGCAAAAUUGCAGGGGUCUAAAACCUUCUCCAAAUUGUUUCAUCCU RNA 2: GGGAAUGGAUCCACAUCUACGAAUUCCUAAGGAUGAAACAAUUUGGAGAAGUUUAGAUCGGAAGAGCACACGU",
    "RECORDED NUMBER": 8.58
  },
  {
    "BINDER": "target 1 insC 3' of 5,insU 3' of 2 (mixed) RNA 1: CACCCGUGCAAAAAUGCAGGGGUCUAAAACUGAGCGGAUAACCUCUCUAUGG RNA 2: GGGAAUGGAUCCACAUCUACGAAUUCGUACCAUAGAGAGGUUAUCCGCCUCUACCGAGAUCGGAAGAGCACACGU",
    "RECORDED NUMBER": 7.82
  }
]

# evaluate next
// Input: target 3 C6U,U21G (mixed) RNA 1: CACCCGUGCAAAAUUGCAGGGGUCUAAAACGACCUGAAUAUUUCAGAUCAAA RNA 2: GGGAAUGGAUCCACAUCUACGAAUUCGUUUGUGAUCUGAAAUAUUUAGGUCUGCAGAUCGGAAGAGCACACGU . Output its pKd only. 6.96
